Target: 5-hydroxytryptamine receptor 6 (Homo sapiens)
Sequence (P50406 whole entry): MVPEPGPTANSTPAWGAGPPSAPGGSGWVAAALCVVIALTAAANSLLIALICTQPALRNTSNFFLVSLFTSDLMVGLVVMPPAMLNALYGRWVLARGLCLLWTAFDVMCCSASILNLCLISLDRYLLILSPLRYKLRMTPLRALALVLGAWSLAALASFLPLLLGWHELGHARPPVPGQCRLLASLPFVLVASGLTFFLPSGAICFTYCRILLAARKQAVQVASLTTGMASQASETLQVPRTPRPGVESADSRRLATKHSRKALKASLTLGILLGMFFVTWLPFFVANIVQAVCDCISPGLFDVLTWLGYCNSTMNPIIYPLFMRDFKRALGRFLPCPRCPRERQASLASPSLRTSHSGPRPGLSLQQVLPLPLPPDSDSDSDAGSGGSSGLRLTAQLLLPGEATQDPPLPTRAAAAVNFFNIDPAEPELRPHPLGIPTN
Assay: biochemical
REPORTED_METRIC: pKi
// pKi is dimensionless: -log10 of concentration (M)

# pKi lookup, item `O=S(=O)(NCCCCN1CCC(c2noc3cc(F)ccc23)CC1)c1cc2ccccc2s1`
8.39

---

Target: 5-hydroxytryptamine receptor 2A (Homo sapiens)
Sequence (P28223 whole entry): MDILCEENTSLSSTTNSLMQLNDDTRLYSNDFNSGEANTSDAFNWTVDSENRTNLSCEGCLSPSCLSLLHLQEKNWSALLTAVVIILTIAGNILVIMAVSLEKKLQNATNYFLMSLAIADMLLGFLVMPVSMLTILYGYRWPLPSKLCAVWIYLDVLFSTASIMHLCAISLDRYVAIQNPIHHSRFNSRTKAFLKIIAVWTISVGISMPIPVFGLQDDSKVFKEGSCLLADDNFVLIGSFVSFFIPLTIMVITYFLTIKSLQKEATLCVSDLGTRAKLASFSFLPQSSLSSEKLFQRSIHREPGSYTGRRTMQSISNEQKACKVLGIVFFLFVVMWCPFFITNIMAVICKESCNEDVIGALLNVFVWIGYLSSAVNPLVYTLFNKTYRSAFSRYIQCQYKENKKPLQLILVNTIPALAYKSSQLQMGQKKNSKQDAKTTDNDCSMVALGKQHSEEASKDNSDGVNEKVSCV
Test: biochemical
Format: cell-based, CHO-K1
Note to self: class labels come from recorded Ki, ranges listed here: bottom bin: < 5 nM; middle bin: ≥ 5 nM and < 10 nM; top bin: ≥ 10 nM

Worked examples, 8 molecules total:
In [3]: df
Out[3]:
                                 smiles_str  assigned_class
0  O=S(=O)(NCCCCN1CCC(c2noc3cc(F)ccc23)CC1)c1cc2ccc(Cl)cc2s1      bottom bin
1  Cc1cccc(S(=O)(=O)NCCCN2CCN(c3noc4ccccc34)CC2)c1         top bin
2  O=S(=O)(NCCCN1CCN(c2nsc3ccccc23)CC1)c1cc2ccccc2s1         top bin
3  O=S(=O)(NCCN1CCC(c2noc3cc(F)ccc23)CC1)c1ccc2ccccc2c1      bottom bin
4  O=S(=O)(NCCN1CCC(c2noc3cc(F)ccc23)CC1)c1cccc2ccccc12      bottom bin
5  O=S(=O)(NCCCCN1CCN(c2noc3ccccc23)CC1)c1ccc2cc(Cl)ccc2c1      middle bin
6  O=S(=O)(NCCCCN1CCN(c2nsc3ccccc23)CC1)c1cc2ccccc2s1      middle bin
7  Cc1c(S(=O)(=O)NCCCCN2CCN(c3noc4ccccc34)CC2)sc2ccc(F)cc12      middle bin

Band for `O=S(=O)(NCCCCN1CCC(c2noc3cc(F)ccc23)CC1)c1cc2ccccc2s1` ?
bottom bin

Band for `Cc1c(S(=O)(=O)NCCCCN2CCC(c3noc4cc(F)ccc34)CC2)sc2ccc(F)cc12` ?
bottom bin

Band for `O=S(=O)(NCCCCN1CCN(c2noc3ccccc23)CC1)c1cccs1` ?
top bin

Band for `O=S(=O)(NCCCCN1CCN(c2noc3ccccc23)CC1)c1cc2ccc(Cl)cc2s1` ?
top bin

Band for `O=S(=O)(NCCCCN1CCN(c2nsc3ccccc23)CC1)c1ccc(OC(F)(F)F)cc1` ?
bottom bin

Band for `O=S(=O)(NCCCN1CCN(c2nsc3ccccc23)CC1)c1cc2ccc(Cl)cc2s1` ?
middle bin

Band for `O=S(=O)(NCCCN1CCN(c2noc3ccccc23)CC1)c1ccc2ccccc2c1` ?
top bin

Band for `O=S(=O)(NCCCN1CCN(c2nsc3ccccc23)CC1)c1ccc(Cl)c(Cl)c1` ?
top bin

Band for `O=S(=O)(NCCCN1CCC(c2noc3cc(F)ccc23)CC1)c1cnc2ccccn12` ?
middle bin

Band for `Cc1c(S(=O)(=O)NCCCCN2CCC(c3noc4cc(F)ccc34)CC2)sc2ccc(Cl)cc12` ?
bottom bin

Band for `O=S(=O)(NCCCN1CCN(c2nsc3ccccc23)CC1)c1ccc2cc(Cl)ccc2c1` ?
top bin

Band for `O=S(=O)(NCCCCN1CCN(c2nsc3ccccc23)CC1)c1cccs1` ?
middle bin

Band for `O=S(=O)(NCCCN1CCN(c2noc3ccccc23)CC1)c1ccc(F)c(Cl)c1` ?
top bin

Band for `Cc1c(S(=O)(=O)NCCCCN2CCN(c3nsc4ccccc34)CC2)sc2ccc(F)cc12` ?
middle bin

Band for `O=S(=O)(NCCCCN1CCN(c2noc3ccccc23)CC1)c1ccc(OC(F)(F)F)cc1` ?
top bin

Band for `Cc1c(S(=O)(=O)NCCCN2CCN(c3noc4ccccc34)CC2)sc2ccc(F)cc12` ?
top bin

Band for `O=S(=O)(NCCCCN1CCN(c2nsc3ccccc23)CC1)c1cnc2ccccn12` ?
middle bin
